Measured values drawn from patent US20180030149A1 for this set.

system: T1, recombinant human ErbB3 monomeric protein (cleaved rhErbB3) (human, UniProt P21860 20-643, limits assumed)
T1 construct: Monomer made by protease cleavage of the Fc fusion; also called Monomeric ErbB3
assay name: SPR Biacore 37 C; supernatant antibody captured on anti-human Fc, cleaved rhErbB3 injected
In this section, each of the binders is paired with its reported kon.

>  <binder>
Sh24C05-35 (antibody, human IgG1, kappa, V domains shown, Humanized, human IgG1/kappa) VH: QVQLVESGGGVVQPGRSLRLSCAASGFTFSDYAMSWVRQAPGKGLEWVATISDGGTYTYYPDNVKGRFTISRDNSKNTLYLQMSSLRAEDTAVYYCAREWGDYDGFDYWGQGTLVTVSS VL: DIQMTQSPSSLSASVGDRVTITCRASQEISGYLSWYQQKPGKAPKLLIYAASTLDSGVPSRFSGSGSGTDFTFTISSLQPEDIATYYCLQYDSYPYTFGQGTKLEIKR

>  <unit text>
M⁻¹ s⁻¹

>  <kon>
8.44e+06

$$$$
>  <binder>
Sh24C05-28 (antibody, human IgG1, kappa, V domains shown, Humanized, human IgG1/kappa) VH: EVQLLESGGGLVQPGGSLRLSCAASGFTFSDYAMSWVRQAPGKGLEWVSTISDGGTYTYYPDNVKGRFTISRDNSKNTLYLQMNSLRAEDTAVYYCAREWGDYDGFDYWGQGTLVTVSS VL: DIQMTQSPSSLSASVGDRVTITCRASQEISGYLSWYQQKPGKAPKRLIYAASTLDSGVPSRFSGSGSGTEFTLTISSLQPEDFATYYCLQYDSYPYTFGQGTKLEIKR

>  <unit text>
M⁻¹ s⁻¹

>  <kon>
3.26e+06

$$$$
>  <binder>
Sh24C05-39 (antibody, human IgG1, kappa, V domains shown, Humanized, human IgG1/kappa) VH: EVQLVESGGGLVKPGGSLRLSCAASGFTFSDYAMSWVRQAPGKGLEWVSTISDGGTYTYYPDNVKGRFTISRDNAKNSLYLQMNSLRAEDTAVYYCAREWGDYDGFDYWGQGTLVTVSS VL: DIQLTQSPSFLSASVGDRVTITCRASQEISGYLSWYQQKPGKAPKLLIYAASTLDSGVPSRFSGSGSGTEFTLTISSLQPEDFATYYCLQYDSYPYTFGQGTKLEIKR

>  <unit text>
M⁻¹ s⁻¹

>  <kon>
1.18e+07

$$$$
>  <binder>
Sh24C05-46 (antibody, human IgG1, kappa, V domains shown, Humanized, human IgG1/kappa) VH: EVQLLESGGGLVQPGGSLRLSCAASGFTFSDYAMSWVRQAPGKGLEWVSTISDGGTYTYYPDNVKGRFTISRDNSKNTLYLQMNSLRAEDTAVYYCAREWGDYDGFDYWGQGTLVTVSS VL: DIQMTQSPSSLSASVGDRVTITCRASQEISGYLSWYQQKPGKAPKLLIYAASTLDSGVPSRFSGSGSGTDFTLTISSLQPEDFATYYCLQYDSYPYTFGQGTKLEIKR

>  <unit text>
M⁻¹ s⁻¹

>  <kon>
7.99e+06

$$$$
>  <binder>
Sh24C05-27 (antibody, human IgG1, kappa, V domains shown, Humanized, human IgG1/kappa) VH: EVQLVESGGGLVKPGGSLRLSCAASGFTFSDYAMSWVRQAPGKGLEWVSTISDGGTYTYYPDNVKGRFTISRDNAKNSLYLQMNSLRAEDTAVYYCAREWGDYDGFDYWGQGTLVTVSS VL: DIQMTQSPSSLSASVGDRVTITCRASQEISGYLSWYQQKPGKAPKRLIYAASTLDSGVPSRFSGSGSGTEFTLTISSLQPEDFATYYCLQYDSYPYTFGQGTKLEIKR

>  <unit text>
M⁻¹ s⁻¹

>  <kon>
3.34e+06

$$$$
